B1: library; numbered along this chain (parent)
chain: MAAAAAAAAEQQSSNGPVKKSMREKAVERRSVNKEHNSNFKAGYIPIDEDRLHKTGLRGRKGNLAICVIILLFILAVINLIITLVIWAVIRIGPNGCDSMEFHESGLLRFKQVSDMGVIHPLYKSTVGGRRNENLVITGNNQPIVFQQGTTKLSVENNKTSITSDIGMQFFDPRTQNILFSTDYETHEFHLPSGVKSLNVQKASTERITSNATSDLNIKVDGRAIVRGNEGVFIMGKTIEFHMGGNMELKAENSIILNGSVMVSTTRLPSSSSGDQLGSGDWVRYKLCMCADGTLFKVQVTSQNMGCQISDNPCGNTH

variants of: B1; assay: SGCB cell-surface expression functional score (HA stain, bin4 vs bin1, normalised to synonymous) (log10 ratio); higher = more cell-surface SGCB (functional)
Label scheme for SGCB cell-surface expression functional score (log10): bottom end = under -0.2, midrange = from -0.2 up to 0.1, top end = 0.1 and over

Before answering, review these 4 worked examples.
changes: V27Q
category.label: midrange

changes: V263W
category.label: top end

changes: Y44D
category.label: top end

changes: I162V
category.label: bottom end

Query: Exercise: read the entry A9Q and state which class it falls under.
Reply: top end

Query: Exercise: read the entry E101A and state which class it falls under.
Reply: midrange

Query: Exercise: read the entry L64V and state which class it falls under.
Reply: top end

Query: Exercise: read the entry S272D and state which class it falls under.
Reply: bottom end

Query: Exercise: read the entry S181M and state which class it falls under.
Reply: top end

Query: Exercise: read the entry Q169E and state which class it falls under.
Reply: top end

Query: Exercise: read the entry I69H and state which class it falls under.
Reply: midrange

Query: Exercise: read the entry E10W and state which class it falls under.
Reply: midrange

Query: Exercise: read the entry G106V and state which class it falls under.
Reply: bottom end
